Test system: rodent lifetime carcinogenesis bioassay, tumor incidence TD50
experiment: carcinogenic potency in animals, long-term in vivo studies, CPDB compilation (AID 1745844)
measurement.conditions: mouse; strain B6C3F1; females; in feed; site: liver; lesion: hepatocellular adenoma + hepatoblastoma + hepatocellular carcinoma; dosed 101 weeks; study length 104 weeks
experimental.readout: TD50
Please state the value followed by its unit.

**Q:** What TD50 appears in the records for this compound with rodent lifetime carcinogenesis bioassay, tumor incidence TD50? CCC1(c2ccccc2)C(=O)NCNC1=O
**A:** 42.8 mg/kg/day

---

Test system: rodent lifetime carcinogenesis bioassay, tumor incidence TD50
experiment: carcinogenic potency in animals, long-term in vivo studies, CPDB compilation (AID 1745844)
measurement.conditions: rat; strain F344/DuCrj; males; in feed; site: colon; lesion: several types; types named in the paper; dosed 104 weeks; study length 104 weeks
experimental.readout: TD50

**Q:** Please report the recorded TD50 for Nc1ccc2nc3ccccn3c2n1 .
**A:** 88.9 mg/kg/day

---

Test system: rodent lifetime carcinogenesis bioassay, tumor incidence TD50
experiment: carcinogenic potency in animals, long-term in vivo studies, CPDB compilation (AID 1745844)
measurement.conditions: mouse; strain B6C3F1; females; in feed; site: forestomach; lesion: several types; types named in the paper; dosed 96 weeks; study length 104 weeks
experimental.readout: TD50

**Q:** Please report the recorded TD50 for c1ccc2c(c1)[nH]c1ccccc12 .
**A:** 1960 mg/kg/day

---

System: rodent lifetime carcinogenesis bioassay, tumor incidence TD50
experiment: carcinogenic potency in animals, long-term in vivo studies, CPDB compilation (AID 1745844)
measurement.conditions: rat; strain Fischer 344; males; inhaled; site: spleen; lesion: mononuclear-cell leukemia; dosed 101 weeks; study length 104 weeks
experimental.readout: TD50

**Q:** Please report the recorded TD50 for C1CO1 .
**A:** 47.3 mg/kg/day

---

Test system: rodent lifetime carcinogenesis bioassay, tumor incidence TD50
experiment: carcinogenic potency in animals, long-term in vivo studies, CPDB compilation (AID 1745844)
measurement.conditions: mouse; strain NZO/BlGd; females; in drinking water; site: stomach, glandular; lesion: several types; types named in the paper; dosed 32 weeks; study length 74 weeks
experimental.readout: TD50

**Q:** Please report the recorded TD50 for O=NN1CCCCCC1 .
**A:** 4.05 mg/kg/day

---

Test system: rodent lifetime carcinogenesis bioassay, tumor incidence TD50
experiment: carcinogenic potency in animals, long-term in vivo studies, CPDB compilation (AID 1745844)
measurement.conditions: mouse; strain DBA/2; males; in drinking water; site: lung; lesion: alveolar-cell carcinoma; dosed 60 weeks; study length 60 weeks
experimental.readout: TD50

**Q:** What TD50 appears in the records for this compound with rodent lifetime carcinogenesis bioassay, tumor incidence TD50? c1ccc2c(c1)ccc1cc3c(ccc4ccccc43)cc12
**A:** 5.88 mg/kg/day

---

Would you kindly list TD50 for each of these compounds?
Test system: rodent lifetime carcinogenesis bioassay, tumor incidence TD50
experiment: carcinogenic potency in animals, long-term in vivo studies, CPDB compilation (AID 1745844)
measurement.conditions: mouse; strain B6C3F1; females; by gavage; site: lung; lesion: alveolar/bronchiolar carcinoma; dosed 103 weeks; study length 104 weeks

1) S=[Se] | 433 mg/kg/day

// moving on: another record for TD50
**Q:** Please report the recorded TD50 for O=c1ccc2ccccc2o1 .
**A:** 825 mg/kg/day
